assay: Inhibition of HIV1 JRFL gp120-mediated CHO cells fusion to HeLaP4 cells by HIV LTR-beta galactosidase reporter assay; format: cell-based; settings: Human immunodeficiency virus 1, JRFL
We begin with a simple list: items and their reported IC50.

Below are worked cases with known answers.
CNC(=O)c1cccc(OC(C)C(=O)N2CCN(C(=O)c3ccccc3)C[C@H]2C)c1OC (mixture of isomers)    > 10 µM
CC(Oc1ccc(C(=O)N(C)C)cc1)C(=O)N1CCN(C(=O)c2ccccc2)C[C@H]1C (mixture of isomers)    > 25 µM

Please turn your attention to the following entry.
Lab note: measured IC50 of CCOc1cc(C(=O)NC)ccc1OC(C)C(=O)N1CCN(C(=O)c2ccccc2)C[C@H]1C (mixture of isomers) was > 2 µM
